Source: ChEMBL document CHEMBL1961873

biological target: Protein kinase C alpha type (Homo sapiens) (UniProt P17252); details: at 1 µM;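 note: reported value is the mean inhibition, measured within the GSK PKIS screening panel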
PROPERTY LABEL: inhibition (%)
Numbers only, in %.

CCN1CCC(C(=O)Nc2n[nH]c3nnc(-c4cccc(F)c4F)cc23)CC1 0.27
CS(=O)(=O)CCNCc1ccoc1-c1ccc2ncnc(Nc3ccc(OCc4ccccc4)cc3)c2c1 0.23
Fc1ccc(Nc2nccc(-c3c(-c4ccc(C(F)(F)F)cc4)nn4ncccc34)n2)cc1F 2.09
CCn1c(-c2nonc2N)nc2cncc(C(=O)NCCNC)c21 58.2
CS(=O)(=O)CCNCc1ccc(-c2ccc3ncnc(Nc4ccc(OCc5cccc(C(F)(F)F)c5)cc4)c3c2)o1 2.11

# batch: return inhibition for each of the 3 molecules below
1. NS(=O)(=O)c1cccc(N/C=C2\C(=O)Nc3ccccc32)c1
2. COc1ccc(-c2nn3ncccc3c2-c2ccnc(Nc3ccc(F)c(F)c3)n2)cc1
3. CN(C)CCNC(=O)Nc1ccc(N(C)c2ccnc(Nc3ccc(CS(C)(=O)=O)cc3)n2)cc1

1: 2.84; 2: 1.74; 3: 1.51
